The origin of these recorded values is patent US9017681B2.

Target: human sAC (Homo sapiens)
Construct: made in house
Sequence (Q96PN6 1-469 limits assumed): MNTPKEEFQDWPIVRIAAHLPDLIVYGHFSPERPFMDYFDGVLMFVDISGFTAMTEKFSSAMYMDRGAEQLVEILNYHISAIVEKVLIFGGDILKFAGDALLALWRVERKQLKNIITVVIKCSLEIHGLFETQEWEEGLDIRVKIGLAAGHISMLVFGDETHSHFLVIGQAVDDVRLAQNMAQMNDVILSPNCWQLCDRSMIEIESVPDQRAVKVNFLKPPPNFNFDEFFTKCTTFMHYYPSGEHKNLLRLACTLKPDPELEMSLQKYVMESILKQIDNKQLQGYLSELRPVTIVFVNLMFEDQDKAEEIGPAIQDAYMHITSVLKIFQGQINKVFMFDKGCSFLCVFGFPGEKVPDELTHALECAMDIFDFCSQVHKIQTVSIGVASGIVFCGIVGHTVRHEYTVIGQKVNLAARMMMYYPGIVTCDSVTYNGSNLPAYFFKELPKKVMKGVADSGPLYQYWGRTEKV
Assay: in vitro adenylyl cyclase assay with purified human sAC protein (cAMP by Correlate-EIA)
Format: biochemical
Conditions: stimulated activity of human sAC in vitro (calcium and bicarbonate stimulated); read-out: hsACt-Stim. approximate IC50 (or the dose range where the IC50 should lie)
Procedure: Purified human sAC protein was used in an in vitro adenylyl cyclase assay. Purification of the protein is described in detail in Litvin et al. 2003. (J. Biol. Chem. 278:15922-15926). This paper also describes the general conditions for a sAC cyclase assay. The specific conditions for the in vitro assay are as follows. […] Cyclic AMP levels were measured in each sample using the Correlate-EIA Direct Cyclic AMP assay kit from Assay Designs as per manufacturers instructions.
MEASURED_PROPERTY: IC50

>>> df
                                   compound  measured_property  recorded_result
0  CC(Sc1nc2ccccc2[nH]1)C(=O)N/N=C/c1ccc([N+](=O)[O-])cc1 (centres unmarked)               IC50     10 to 100 µM
1  O=C(CSc1nc2ccccc2n1Cc1ccc(Cl)cc1)N/N=C\c1cc(Br)ccc1O               IC50             1 µM
2     Cn1c(SCC(=O)N/N=C/c2ccccn2)nc2ccccc21               IC50         > 100 µM
3  CCN(CC)c1ccc(/C=N/NC(=O)CSc2nc3ccccc3[nH]2)cc1               IC50         > 100 µM
4  C/C(=N\NC(=O)CSc1nc2ccccc2[nH]1)c1ccccc1               IC50         > 100 µM
5  COc1ccc(C2=NN(C(=O)CSc3nc4ccccc4[nH]3)C(c3ccc(F)cc3)C2)cc1 (centres unmarked)               IC50     10 to 100 µM
6  O=C(CSc1nc2ccccc2[nH]1)N/N=C/c1ccc(Cl)cc1               IC50     30 to 100 µM
7  O=C(CSc1nc2ccccc2[nH]1)N/N=C/c1cccc2ccccc12               IC50     10 to 100 µM
